Hello, the source for this data is ChEMBL document CHEMBL5036318, in case you need it.

target of assay: Stimulator of interferon genes protein (Homo sapiens, UniProt Q86WV6, G230A/R293Q/R71H)
Sequence (Q86WV6 whole entry R71H/G230A/R293Q): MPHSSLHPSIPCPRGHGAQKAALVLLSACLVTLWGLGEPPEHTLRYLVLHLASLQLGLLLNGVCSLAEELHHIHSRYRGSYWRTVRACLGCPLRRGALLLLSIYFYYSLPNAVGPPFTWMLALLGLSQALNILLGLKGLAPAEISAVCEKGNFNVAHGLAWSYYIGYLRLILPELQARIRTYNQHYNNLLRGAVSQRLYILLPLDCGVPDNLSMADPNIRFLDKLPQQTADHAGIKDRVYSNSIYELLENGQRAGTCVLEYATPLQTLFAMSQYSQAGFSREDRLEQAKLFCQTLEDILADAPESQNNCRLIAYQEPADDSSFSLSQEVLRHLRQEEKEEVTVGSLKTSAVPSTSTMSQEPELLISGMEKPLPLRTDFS
method notes: Activation of human STING HAQ mutant expressed in digitonin treated HEK293T cells co-expressing IRF3-activated ISRE assessed as IRF3 reporter activation by luciferase reporter gene assay
pEC50: −log10 of the molar value.
Measured pEC50, listed per entry.

{"smiles text": "Nc1ncnc2c1ncn2[C@@H]1O[C@@H]2CO[P@](=O)(S)O[C@H]3[C@@H](F)[C@H](n4cnc5c(N)ncnc54)O[C@@H]3CO[P@](=O)(S)O[C@H]2[C@H]1F", "pEC50": 6.06}
{"smiles text": "Nc1ncnc2c1ncn2[C@@H]1O[C@@H]2CO[P@@](=O)(S)O[C@H]3[C@@H](F)[C@H](n4cnc5c(N)ncnc54)O[C@@H]3COP(=O)(O)O[C@H]2[C@H]1F", "pEC50": 7.00}
{"smiles text": "Nc1ncnc2c1ncn2[C@@H]1O[C@@H]2COP(=O)(O)O[C@H]3[C@@H](O)[C@H](n4cnc5c(N)ncnc54)O[C@@H]3COP(=O)(O)O[C@H]2[C@H]1O", "pEC50": 6.72}

* * *

target of assay: Stimulator of interferon genes protein (Homo sapiens, UniProt Q86WV6)
Sequence (Q86WV6 whole entry): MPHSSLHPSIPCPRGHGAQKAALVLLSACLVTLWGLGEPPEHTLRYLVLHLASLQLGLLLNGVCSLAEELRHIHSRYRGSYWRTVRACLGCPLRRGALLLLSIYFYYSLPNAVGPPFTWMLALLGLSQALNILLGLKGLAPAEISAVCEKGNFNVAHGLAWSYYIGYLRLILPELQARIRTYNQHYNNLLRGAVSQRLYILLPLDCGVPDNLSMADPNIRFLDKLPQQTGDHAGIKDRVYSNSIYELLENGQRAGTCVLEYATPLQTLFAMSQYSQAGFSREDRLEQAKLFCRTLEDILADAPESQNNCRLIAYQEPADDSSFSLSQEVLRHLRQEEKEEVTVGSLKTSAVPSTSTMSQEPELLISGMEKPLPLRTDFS
method notes: Activation of wild-type human STING expressed in human THP1-Dual cells co-expressing IRF3-activated ISRE assessed as IRF3 reporter activation measured after 7 hrs by luciferase reporter gene assay
Assay type: cell-based
experimental readout: EC50 (nM)

{"smiles text": "CC(C)(C)C(=O)OCO[P@@]1(=O)OC[C@H]2O[C@@H](n3cnc4c(N)ncnc43)[C@H](F)[C@@H]2O[P@](=O)(OCOC(=O)C(C)(C)C)OC[C@H]2O[C@@H](n3cnc4c(N)ncnc43)[C@H](F)[C@@H]2O1", "target of assay": "Stimulator of interferon genes protein (Homo sapiens, UniProt Q86WV6)", "experimental readout": "EC50", "unit label": "nM", "value observed": 50}
{"smiles text": "CC(C)(C)C(=O)OCS[P@@]1(=O)OC[C@H]2O[C@@H](n3cnc4c(N)ncnc43)[C@H](F)[C@@H]2O[P@@](=O)(SCOC(=O)C(C)(C)C)OC[C@H]2O[C@@H](n3cnc4c(N)ncnc43)[C@H](F)[C@@H]2O1", "target of assay": "Stimulator of interferon genes protein (Homo sapiens, UniProt Q86WV6)", "experimental readout": "EC50", "unit label": "nM", "value observed": 50}
{"smiles text": "CCC(CC)C(=O)OCO[P@@]1(=O)OC[C@H]2O[C@@H](n3cnc4c(N)ncnc43)[C@H](F)[C@@H]2O[P@](=O)(OCOC(=O)C(CC)CC)OC[C@H]2O[C@@H](n3cnc4c(N)ncnc43)[C@H](F)[C@@H]2O1", "target of assay": "Stimulator of interferon genes protein (Homo sapiens, UniProt Q86WV6)", "experimental readout": "EC50", "unit label": "nM", "value observed": 50}
{"smiles text": "Nc1ncnc2c1ncn2[C@@H]1O[C@@H]2CO[P@](=O)(S)O[C@H]3[C@@H](F)[C@H](n4cnc5c(N)ncnc54)O[C@@H]3CO[P@](=O)(S)O[C@H]2[C@H]1F", "target of assay": "Stimulator of interferon genes protein (Homo sapiens, UniProt Q86WV6)", "experimental readout": "EC50", "unit label": "nM", "value observed": 7790}
{"smiles text": "CCC(CC)C(=O)OCO[P@]1(=O)OC[C@H]2O[C@@H](n3cnc4c(N)ncnc43)[C@H](F)[C@@H]2OP(=O)(O)OC[C@H]2O[C@@H](n3cnc4c(N)ncnc43)[C@H](F)[C@@H]2O1", "target of assay": "Stimulator of interferon genes protein (Homo sapiens, UniProt Q86WV6)", "experimental readout": "EC50", "unit label": "nM", "value observed": 150}
{"smiles text": "Nc1nc2c(ncn2[C@@H]2O[C@@H]3COP(=O)(O)O[C@@H]4[C@H](O)[C@@H](COP(=O)(O)O[C@@H]2[C@@H]3O)O[C@H]4n2cnc3c(N)ncnc32)c(=O)[nH]1", "target of assay": "Stimulator of interferon genes protein (Homo sapiens, UniProt Q86WV6)", "experimental readout": "EC50", "unit label": "nM", "value observed": 2630}
